target: human EphA4-Fc (R&D Systems) (human, UniProt P54764 20-547); test: SPR
Sequence (P54764 20-547): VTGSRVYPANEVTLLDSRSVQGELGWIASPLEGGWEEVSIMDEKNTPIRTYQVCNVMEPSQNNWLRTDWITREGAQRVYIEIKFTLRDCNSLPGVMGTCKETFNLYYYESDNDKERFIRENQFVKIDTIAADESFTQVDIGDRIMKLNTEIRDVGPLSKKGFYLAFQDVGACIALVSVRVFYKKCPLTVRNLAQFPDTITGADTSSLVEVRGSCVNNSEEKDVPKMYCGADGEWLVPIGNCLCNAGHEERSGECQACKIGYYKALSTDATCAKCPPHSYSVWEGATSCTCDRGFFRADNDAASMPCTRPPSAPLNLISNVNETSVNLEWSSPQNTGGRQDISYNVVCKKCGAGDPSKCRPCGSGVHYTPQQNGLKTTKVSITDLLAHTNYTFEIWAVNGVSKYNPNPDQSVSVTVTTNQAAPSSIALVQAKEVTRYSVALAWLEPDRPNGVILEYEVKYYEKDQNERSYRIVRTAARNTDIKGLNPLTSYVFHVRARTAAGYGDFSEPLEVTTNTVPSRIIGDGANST
pKd: −log10 of the molar value.
Recorded metric: pKd

I: Nb 19 (VHH) VHH: QVQLQESGGGLVQPGGSLRLSCAATGRNFNAYSIAWFRQAPGKEREFVASINWSGSNTYYAVAVKGRFTTSRDNAKNTVYLQMNSLKPEDTAVYYCNAFAAGWGPDYWGQGTQVTVSS
II: Nb 34 (VHH) VHH: QVQLQESGGGLVQAGGSLRLSCAASGFTFSSYAMSWVRQAPGKGLEWVSGINTGGGSTYYADSVKGRFTISRDNAKNTLYLQMNSLKSEDTAVYYCVPRVGVLEGLTSFGSWGQGTQVTVSS
Query :: Between I and II , whose measured pKd reads higher? Record your answer as the label of the chosen record.
Result :: I
(I: 6.07, II: 4.74)
